# Assay System: T1, recombinant human Tau monomer, 2N4R isoform (amino acids 2-441) (human, UniProt P10636-8 2-441)
# T1 construct: range 2-441; N-terminal His-tag removed with TEV protease; also called monomeric Tau
# T1 sequence (P10636 other isoform, or with tags, fused parts or gaps limits assumed): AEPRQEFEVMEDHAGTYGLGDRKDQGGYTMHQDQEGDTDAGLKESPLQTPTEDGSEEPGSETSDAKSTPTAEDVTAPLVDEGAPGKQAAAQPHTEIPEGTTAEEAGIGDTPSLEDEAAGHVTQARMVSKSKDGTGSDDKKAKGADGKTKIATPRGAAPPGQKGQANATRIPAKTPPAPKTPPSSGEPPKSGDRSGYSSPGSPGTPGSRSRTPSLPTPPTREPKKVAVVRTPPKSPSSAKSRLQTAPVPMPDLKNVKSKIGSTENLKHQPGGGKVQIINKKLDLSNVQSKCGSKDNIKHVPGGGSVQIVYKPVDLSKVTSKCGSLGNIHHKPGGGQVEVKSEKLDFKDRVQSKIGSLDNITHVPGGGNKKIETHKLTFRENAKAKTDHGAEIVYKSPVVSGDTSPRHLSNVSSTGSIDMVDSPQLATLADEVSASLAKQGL
# Test Details: SPR, mIgG2a captured, Tau monomer analyte, 1:1 fit
Property Measured: koff

| Binder | Reported |
| --- | --- |
| 125B11-H3 (antibody, mouse IgG2a, V domains shown, also called 125B1-H3) VH: EVKLEESGGGLVQPGGSMKLSCVASRFIFSNYWMNWVRQSPEKGLEWVAQIRLKSDNYATHYAESVKGRFTISRDDSKSSVYLQMNNLRAEDTGIYYCTGGTTYWGQGTTLTVSS VL: DIVMTQSQKFLSTSVGDRVNITCKASQNVGTAVAWYQQKPGQSPGLLIYSASIRYTGVPDRFTGNGSGTDFTLTISDMQSEDLADYFCQQFRTYPYTFGGGTKLEIK | 0.0003 s⁻¹ |
| 123E9-A1 (antibody, mouse IgG2a, V domains shown) VH: EVQLQQSGPELVKPGASVKMSCKASGYTFTDYYMKWVKQSHGKSLEWIGDIDPNNGGTSYNQKFKGKATLTVDKSSSTAYMQLNSLTSEDSAVYYCARSAGFGDSFSFWGLGTLVTVSA VL: DVLMTQTPLSLPVSLGDQASISCRSSQSIVHSNGNTYLEWYLQKPGQSPKLLIYKVSNRFSGVPDRFSGSGSGTDFTLKISRVEAEDLGFYYCFQGSHVPPTFGGGTKLEIK | 0.02 s⁻¹ |

Next binder, koff to be filled in.
Per the records, this binder ( 54C1-H11 (antibody, mouse IgG2a, V domains shown) VH: EVQLVESGGDLVKPGGSLKVSCVASGFTFRSYGMSWVRQTPDKRLDWVATISSGGNYTYYPDSVKGRFTISRDNAKNTLYLQMSSLKSEDTAMYYCASSYSGAMDYWGQGTSVTVSS VL: DTVMTQSPLSLPVSLGDQASISCRSSQSIVHSNGNTYLEWYLQKPGQSPKLLIYTVSNRFSGVPDRFSGSGSGTDFTLKISRVEAEDLGVYYCFQGSHVPWTFGGGTKLEIK ) has koff equal to 0.0002 s⁻¹
